- System Name: aurora kinase B (Homo sapiens, UniProt Q96GD4)
- Construct: purchased Invitrogen PV3174
- Sequence (Q96GD4 whole entry): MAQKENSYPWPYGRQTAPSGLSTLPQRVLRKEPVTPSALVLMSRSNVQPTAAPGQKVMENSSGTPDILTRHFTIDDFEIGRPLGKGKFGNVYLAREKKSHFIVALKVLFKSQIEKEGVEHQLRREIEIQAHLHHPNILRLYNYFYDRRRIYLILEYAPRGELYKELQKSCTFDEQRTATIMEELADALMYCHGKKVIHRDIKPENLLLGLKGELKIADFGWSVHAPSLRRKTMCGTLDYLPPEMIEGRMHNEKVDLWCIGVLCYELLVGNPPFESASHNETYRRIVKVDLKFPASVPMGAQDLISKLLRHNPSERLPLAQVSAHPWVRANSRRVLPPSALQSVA
- Measurement Description: Aurora kinase B inhibition in vitro (Invitrogen aurora kinase screening kit PV3174)
- Format: biochemical
- Cond: 40 μM
Counter-ions that a name gives are not always drawn.
Endpoint: The inhibition ratio of the compound on Aurora B(%)

// solved cases for The inhibition ratio of the compound on Aurora B(%) follow
> print(dat)
                                   molecule  unit.of.measurement  reported.value
1  COCCOc1cc2c(cc1OCCOC)C1=Nc3cccc([N+](=O)[O-])c3CN1C=N2                    %            35.1
2  Br.COCCOc1cc2c(cc1OCCOC)C1=Nc3cccc(N)c3CN1C=N2                    %            48.5

[a] COCCOc1cc2c(cc1OCCOC)C1=Nc3cccc(F)c3CN1C=N2 [Compound V-3, mesylate]
[b] C#Cc1cccc2c1CN1C=Nc3ccc(-c4ccc(CNCCS(C)(=O)=O)o4)cc3C1=N2
For a and b , which recorded The inhibition ratio of the compound on Aurora B(%) is lower? Identify your selection by its label.
b

Measured values drawn from patent US20110288086A1 for this set.
